# assay.target: T1, PACAP-R3 (human, UniProt P41587 24-438)
# T1 sequence (looked up): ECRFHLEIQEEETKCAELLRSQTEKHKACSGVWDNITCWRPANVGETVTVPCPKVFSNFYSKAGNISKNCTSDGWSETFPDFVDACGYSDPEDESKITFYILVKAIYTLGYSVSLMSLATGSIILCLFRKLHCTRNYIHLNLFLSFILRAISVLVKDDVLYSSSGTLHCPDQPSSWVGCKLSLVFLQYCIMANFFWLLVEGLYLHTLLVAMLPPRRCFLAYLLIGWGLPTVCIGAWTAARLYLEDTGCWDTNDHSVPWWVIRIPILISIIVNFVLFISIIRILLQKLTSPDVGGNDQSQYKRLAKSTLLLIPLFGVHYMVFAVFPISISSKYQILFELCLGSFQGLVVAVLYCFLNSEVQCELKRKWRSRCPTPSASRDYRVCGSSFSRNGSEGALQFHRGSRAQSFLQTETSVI
# test.name: cell-based or functional assay
measured.endpoint: R3 Selectivity

Completed entries (count: 9):
[
  {
    "binder": "HSDAVFTDNYTRLRKQLAAKKYLNSIKKGGT [R3P22]",
    "measured.endpoint": "R3 Selectivity",
    "result.value": 24
  },
  {
    "binder": "HSDAVFTENYTKLRKQLAAKKYLNDLKK [R3P5]",
    "measured.endpoint": "R3 Selectivity",
    "result.value": 30
  },
  {
    "binder": "HSDAVFTDNYTRLRKQMAVKKYLNSIKKK [R3P58]",
    "measured.endpoint": "R3 Selectivity",
    "result.value": 170
  },
  {
    "binder": "HSDAVFTDNYTRLRKQMAAKKYLNSIKK [R3P51]",
    "measured.endpoint": "R3 Selectivity",
    "result.value": 90
  },
  {
    "binder": "HSDAVFTDNYTRLRKQMAYKKYLNSIKNKR [R3P115]",
    "measured.endpoint": "R3 Selectivity",
    "result.value": 50
  },
  {
    "binder": "HSDAVFTDNYTRLRKQLAVKKYLNDIKKGGT [R3P21]",
    "measured.endpoint": "R3 Selectivity",
    "result.value": 60
  },
  {
    "binder": "HSDAVFTDNYTRLRKQMAAKKYLNSIKNSR [R3P148]",
    "measured.endpoint": "R3 Selectivity",
    "result.value": 100
  },
  {
    "binder": "HSDAVFTDNYTRLRKQMAVKKYLNSIKN [R3P42]",
    "measured.endpoint": "R3 Selectivity",
    "result.value": 10
  },
  {
    "binder": "HSDAVFTDNYTRLRKQMAAKKYLNSIDNKR [R3P118]",
    "measured.endpoint": "R3 Selectivity",
    "result.value": 30
  }
]

I = HSDAVFTDNYTRLRKQVAAKKYLQSILKKR [R3P84]
II = HSDAVFTDNYTRLRKQMAVKKYLNDILN [R3P48]
(Q) Which item exceeds the other in R3 Selectivity, I or II ? Give the label of your selection.
(A) I
